System: Mahlavu
Experiment: Real-time cell electronic sensing (RT-CES) growth analysis, Mahlavu
Assay type: cell-based
Settings: Homo sapiens, 72h, read-out: IC50 values calculated from RT-CES experiment data, Mahlavu 72h
assay_endpoint: IC50 (µM)
Reply with just the number (in µM).

> print(dat)
                               query.smiles  value
1  COc1ccc(C(=O)/C=C/c2cccc([N+](=O)[O-])c2)cc1    2.3
2            O=C(/C=C/c1ccc(Cl)cc1)c1ccccc1    6.8

# ---- query compound ----
INPUT: Would you mind telling me what IC50 value was observed for O=C(/C=C/c1ccccc1)c1ccccc1 ?
OUTPUT: 6.8

----------
System: Huh7
Experiment: NCI-60 sulforhodamine B (SRB) cytotoxicity assay, Huh7
Format: cell-based, human
Details: SRB, 72 h, 2.5–40 μM, triplicate; read-out: IC50 Huh7
pIC50: −log10 of the molar value.
assay_endpoint: pIC50

INPUT: Recorded pIC50 of Oc1cc(O)c2c(c1)O[C@H](c1ccc(O)c(O)c1)[C@@H](O)C2 [Catechin hydrate, reference compound] , please.
OUTPUT: < 4.40
